inhibition at 0.5 µM listing for selected compounds.
test system: differentiated HL-60 cells; test: ROS production induced by PMA in HL-60 cells differentiated into neutrophil cells (L-012 luminescence); type: cell-based, human; settings: Homo sapiens, HL-60, synthetic example compounds 0.5 uM, read-out: ROS production inhibitory effect

Some compounds with recorded inhibition at 0.5 µM:
* Oc1c2c(nn1-c1ccccn1)CCN(Cc1cccc(C(F)(F)F)c1)C2 | 30 to 50%
* Oc1c2c(nn1-c1ccccn1)CCN(Cc1cc3ccccc3cn1)C2 | 50 to 70%
* Oc1c2c(nn1-c1ccc(C(F)(F)F)cn1)CN(Cc1ccccc1)CC2 | 30 to 50%
* Oc1c2c(nn1-c1ccccc1Cl)CCN(Cc1ccccc1)C2 | < 30%

For the compound shown here, Oc1c2c(nn1-c1ccccn1)CCCC2 , give the reported inhibition at 0.5 µM.
< 30%

Can you check Oc1c2c(nn1-c1ccccn1)CCN(Cc1ccccc1)C2 next?
30 to 50%

====

system: differentiated HL-60 cells; assay: ROS production induced by PMA in HL-60 cells differentiated into neutrophil cells (L-012 luminescence); assay type: cell-based, human; conditions: Homo sapiens, HL-60, synthetic example compounds 0.5 uM, read-out: ROS production inhibitory effect
recordedMetric: inhibition at 0.5 µM

Examples with their reported inhibition at 0.5 µM follow.
* Oc1c2c(nn1-c1ccc(Cl)cn1)CN(Cc1ccccc1)CC2 [compound 35] | 50 to 70%
* O=C(OCc1ccc([N+](=O)[O-])cc1)N1CCc2c(nn(-c3ccccn3)c2O)C1 [compound 32] | 30 to 50%
* Oc1c2c(nn1-c1ccc(Br)cc1)CCN(Cc1ccccc1)C2 [compound 41] | 50 to 70%
* O=C(O)c1ccc(-n2nc3c(c2O)CN(Cc2ccccc2)CC3)cc1 [compound 81] | > 70%

Returns the measured inhibition at 0.5 µM for the input compound. Input: N#Cc1ccc(CN2CCc3nn(-c4ccc(C(F)(F)F)cn4)c(O)c3C2)cc1 [compound 76]
30 to 50%

Same again, this time with N#Cc1ccc(CN2CCc3nn(-c4ccccn4)c(O)c3C2)cc1 [compound 75]
50 to 70%

====

test system: differentiated HL-60 cells; assay: ROS production induced by PMA in HL-60 cells differentiated into neutrophil cells (L-012 luminescence); type: cell-based, human; settings: Homo sapiens, HL-60, synthetic example compounds 0.5 uM, read-out: ROS production inhibitory effect
recordedMetric: inhibition at 0.5 µM

If you can, please state the reported inhibition at 0.5 µM value of Oc1c2c(nn1-c1ccccn1)CN(Cc1cccc(C(F)(F)F)c1)CC2 [compound 10] .
30 to 50%

====

Here, each record is paired with measured inhibition at 0.5 µM data.
system: differentiated HL-60 cells; assay: ROS production induced by PMA in HL-60 cells differentiated into neutrophil cells (L-012 luminescence); assay type: cell-based, human; details: Homo sapiens, HL-60, synthetic example compounds 0.5 uM, read-out: ROS production inhibitory effect

* Oc1c2c(nn1-c1ccc(C(F)(F)F)cn1)CCN(Cc1cc3ccccc3cn1)C2 [compound 80] | 50 to 70%

Any idea what inhibition at 0.5 µM was measured for Oc1c2c(nn1-c1ccccn1)CN(Cc1ccc(F)cc1)CC2 [compound 6] ?
30 to 50%

Repeat for the following compound: Oc1c2c(nn1-c1ccccn1)CN(Cc1ccccc1)CC2 [compound 3]
50 to 70%

Let us now turn to Oc1c2c(nn1-c1ccccc1)CCN(Cc1ccccc1)C2 [compound 40]
50 to 70%

Please do the same for Oc1c2c(nn1-c1ccc(C(F)(F)F)cn1)CCCC2 [compound 2] as well.
< 30%

Same for Oc1c2c(nn1-c1ccccn1)CN(Cc1cc(F)cc(F)c1)CC2 [compound 9]
50 to 70%

# credit: patent US12509438B2
